Here, each record is paired with measured GI50 data.
Tested on: T47D
assay method text: NCI tumour cell line growth inhibition, 48 h
Calls of active or inactive are those of the source. Rule as the data show it: active = GI50 up to about 1.1 µM and inactive = higher.

Known results for compounds:
### Prompt What value of GI50 on T47D does "NNS(=O)(=O)c1ccc(/C=C2\NC(=O)NC2=O)cc1" have?
### Response > 100 µM (inactive)

### Prompt Request: COC(CNC(=O)C(C)NC(=O)CCc1ccccc1)OC (centres undefined)
### Response > 100 µM (inactive)

### Prompt Then "O=C(O)[C@H]1NC[C@H]2C(Br)=NO[C@@H]12" ?
### Response > 100 µM (inactive)

### Prompt Item: "C[n+]1cccc2c(=O)c3ccccc3oc21"
### Response > 100 µM (inactive)

### Prompt Try this compound too: "Ic1ccc2c(c1)N(c1ccccc1)c1cc([N-]c3ccc4nc5ccc(I)cc5[n+](-c5ccccc5)c4c3)ccc1N2"
### Response 61.7 µM (inactive)

### Prompt Next: O=S(=O)(/N=S(/Nc1ccccc1)C(Cl)Cl)c1ccccc1 (centres undefined)
### Response > 100 µM (inactive)

### Prompt Follow-up item: CC(=O)NC1C(OCC(=O)NC(C)C(=O)NC(CCC(=O)NCCCCCNc2ccc([N+](=O)[O-])c3[nH]c4ccccc4c(=O)c23)C(N)=O)C(O)C(CO)OC1(C)OCc1ccccc1 (centres undefined)
### Response > 50 µM (inactive)

### Prompt Here is the next compound: "CCC(=O)Nc1cccc(/N=C/c2ccc(OC(=O)/C=C\c3ccccc3)cc2)c1"
### Response 8.26 µM (inactive)

Now look at this one.
### Prompt Kindly state the measured GI50 obtained for "COC(c1ccc(C(C)(C)C)cc1)(c1ccc(C(C)(C)C)cc1)c1ccc(C(C)(C)C)cc1" with T47D.
### Response > 100 µM (inactive)

Reference source: ChEMBL document CHEMBL1201862
